meta.source: patent US10590086B2

- target under test: IDO (Homo sapiens)
- Sequence (P14902 whole entry): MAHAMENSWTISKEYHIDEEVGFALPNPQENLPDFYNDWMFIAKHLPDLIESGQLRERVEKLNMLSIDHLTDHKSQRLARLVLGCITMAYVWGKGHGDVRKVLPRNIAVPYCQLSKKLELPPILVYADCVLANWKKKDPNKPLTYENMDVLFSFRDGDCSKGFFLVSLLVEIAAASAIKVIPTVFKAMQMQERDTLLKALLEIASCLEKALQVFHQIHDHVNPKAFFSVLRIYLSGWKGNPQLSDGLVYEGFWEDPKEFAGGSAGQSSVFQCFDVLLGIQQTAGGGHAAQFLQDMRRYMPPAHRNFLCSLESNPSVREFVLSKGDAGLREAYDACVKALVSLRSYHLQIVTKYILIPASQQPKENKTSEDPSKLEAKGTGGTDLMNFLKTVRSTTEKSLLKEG
- protocol summary: SKOV3 kynurenine cell-based assay (IDO induced by IFN-γ)
- Design: IDO expression was induced in the SKOV3 cells by the addition of 500 ng/ml IFN-γ; endogenous in cells; host or cells: SKOV3 (human ovarian adenocarcinoma), induced with IFN-γ
- condition: SKOV3 human ovarian adenocarcinoma cells, 500 ng/ml IFN-γ, 48 hours, 500 μM L-tryptophan; read-out: SKOV3 Kynurenine cell based assay pIC50 (converted)
measured property: IC50

Worked examples, 2 compounds total:
CC1(C)CN(c2cc(Cl)cc3[nH]ncc23)CCN1CCNS(C)(=O)=O [Compound 420]
> 100 µM
CS(=O)(=O)N1CCC(c2cc(Cl)cc3[nH]ncc23)CC1 [Compound 40]
3.24 to 31.6 µM

Param item = CN(C1CCCN(c2cc(Cl)cc3[nH]ncc23)C1)S(C)(=O)=O (stereo not drawn) [Compound 242] ; retrieve measured IC50. 32.4 to 100 µM

Continue with CS(=O)(=O)N1CCN(c2cc(C#N)cc3[nH]ncc23)CC1 [Compound 194] 3.24 to 31.6 µM

Continue with Cc1cc(N2CCN(S(C)(=O)=O)CC2)c2cn[nH]c2c1 [Compound 31] 32.4 to 100 µM

Continue with Cn1cc2c(n1)CN(c1cc(Cl)cc3[nH]ncc13)CC2 [Compound 433] > 100 µM

Continue with CS(=O)(=O)NC1CN(c2cc(Cl)cc3[nH]ncc23)C1 [Compound 431] > 100 µM

Continue with O=S(=O)(CC(F)(F)F)N1CCN(c2cccc3[nH]ncc23)CC1 [Compound 18] > 100 µM

###

- target under test: TDO (Homo sapiens)
- Sequence (P48775 whole entry): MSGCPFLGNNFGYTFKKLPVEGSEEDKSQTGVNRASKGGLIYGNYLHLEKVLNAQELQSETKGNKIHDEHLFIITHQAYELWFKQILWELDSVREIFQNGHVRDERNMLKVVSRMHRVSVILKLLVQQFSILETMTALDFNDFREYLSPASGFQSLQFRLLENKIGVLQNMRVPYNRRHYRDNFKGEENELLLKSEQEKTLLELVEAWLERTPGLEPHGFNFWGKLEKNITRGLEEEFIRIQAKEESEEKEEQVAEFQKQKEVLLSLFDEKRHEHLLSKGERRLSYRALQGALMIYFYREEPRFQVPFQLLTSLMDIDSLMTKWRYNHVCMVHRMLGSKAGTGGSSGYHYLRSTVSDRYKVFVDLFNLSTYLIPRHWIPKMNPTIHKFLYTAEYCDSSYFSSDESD
- protocol summary: hTDO biochemical coupled assay
- condition: 330 μM L-tryptophan, 17 minutes, room temperature; read-out: hTDO biochemical assay pIC50 (converted)
measured property: IC50

CC(=O)N1CCN(c2cc(Cl)cc3c(N)noc23)CC1
> 100 µM
CS(=O)(=O)NCCOc1cccc2[nH]ncc12
3.24 to 31.6 µM
CC(=O)NCC1CCCN(c2cc(Cl)cc3[nH]ncc23)C1 (stereo not shown)
< 3.16 µM
CS(=O)(=O)N1CCC(c2cc(C(F)F)cc3[nH]ncc23)CC1
< 3.16 µM
CN1CCN(C2CCN(c3cc(Cl)cc4[nH]ncc34)CC2)C1=O
< 3.16 µM

Param item = CN(C1CCN(c2cc(Cl)cc3[nH]ncc23)CC1(C)C)S(C)(=O)=O (stereo not shown) ; retrieve measured IC50. < 3.16 µM

###

- target under test: IDO (Homo sapiens)
- protocol summary: SKOV3 kynurenine cell-based assay (IDO induced by IFN-γ)
- Parameters: IDO expression was induced in the SKOV3 cells by the addition of 500 ng/ml IFN-γ; endogenous in cells; host or cells: SKOV3 (human ovarian adenocarcinoma), induced with IFN-γ
- condition: SKOV3 human ovarian adenocarcinoma cells, 500 ng/ml IFN-γ, 48 hours, 500 μM L-tryptophan; read-out: SKOV3 Kynurenine cell based assay pIC50 (converted)
measured property: IC50

Worked examples, 5 molecules total:
c1ccc(CNc2cccc3[nH]ncc23)cc1
32.4 to 100 µM
COc1cc(N2CCN(C(C)=O)CC2)c2cn[nH]c2c1
> 100 µM
O=S(=O)(Cc1ccccc1)N1CCN(c2cccc3[nH]ncc23)CC1
32.4 to 100 µM
CS(=O)(=O)Nc1ccc(-c2cc(Cl)cc3[nH]ncc23)cc1
3.24 to 31.6 µM
CC(=O)N(C)c1ccc(-c2cc(Cl)cc3[nH]ncc23)cc1
3.24 to 31.6 µM

Let's switch to this molecule now.
Param item = CS(=O)(=O)N1CCC(c2cccc3[nH]ncc23)CC1 ; retrieve measured IC50. > 100 µM
